Kindly state GI50 for each of the entries shown.
Tested on: HOP-92
Assay: NCI tumour cell line growth inhibition, 48 h
Activity calls are given as the source filed them. Cut-off read from the data, not from the text of the source: active = GI50 up to about 1.1 µM and inactive = higher.

// GI50 lookup, key: O=S(=O)(c1ccccc1)n1c2ccc(Br)cc2c2nc3ccccc3nc21 > 100 µM (inactive)

Similarly, N/N=c1\c2ccccc2c2ccc3c4ccccc4/c(=N\N)c3c12 ? > 100 µM (inactive)

Also, CCCN(CCCCC(NC(C)=O)C(=O)NCc1ccccc1)C(=O)N(CCCl)N=O (stereo not given) please. 43.8 µM (inactive)

And then CC(=O)CC12NC(=O)N(C)N=C1N(C)C(=O)N(C)C2=O (stereo not given) , what is it? 95.1 µM (inactive)

And for CC/C=C\C/C=C\C/C=C\CCCCCCCC(=O)OCC ? > 100 µM (inactive)

Then this compound: O=C1/C(=C/c2ccc(Cl)cc2)Sc2scc(-c3cccc([N+](=O)[O-])c3)[n+]21 2.17 µM (inactive)

Next record, please: O=C(/C=C/c1ccc(O)c(O)c1)OCCOC(=O)/C=C/c1ccc(O)c(O)c1 42.2 µM (inactive)

Also need NNC(=O)c1ccccc1Nc1nc(-c2cccs2)nc2ccc(Br)cc12 , thanks. > 100 µM (inactive)

And for Cc1nc2c(O)nc3ccccc3c2o1 ? > 100 µM (inactive)

Field entry: CC1(C)CC[C@]2(C(=O)O)CC[C@]3(C)[C@H](C(=O)C=C4[C@@]5(C)C=C(C#N)C(=O)C(C)(C)[C@@H]5CC[C@]43C)[C@@H]2C1 [BARDOXOLONE] 1.29 µM (inactive)
